The following compounds are shown together with reported pIC50 values.
Molecular target: GSK3b (GST-full length GSK3b) (Homo sapiens (Human))
Sequence (P49841 whole entry): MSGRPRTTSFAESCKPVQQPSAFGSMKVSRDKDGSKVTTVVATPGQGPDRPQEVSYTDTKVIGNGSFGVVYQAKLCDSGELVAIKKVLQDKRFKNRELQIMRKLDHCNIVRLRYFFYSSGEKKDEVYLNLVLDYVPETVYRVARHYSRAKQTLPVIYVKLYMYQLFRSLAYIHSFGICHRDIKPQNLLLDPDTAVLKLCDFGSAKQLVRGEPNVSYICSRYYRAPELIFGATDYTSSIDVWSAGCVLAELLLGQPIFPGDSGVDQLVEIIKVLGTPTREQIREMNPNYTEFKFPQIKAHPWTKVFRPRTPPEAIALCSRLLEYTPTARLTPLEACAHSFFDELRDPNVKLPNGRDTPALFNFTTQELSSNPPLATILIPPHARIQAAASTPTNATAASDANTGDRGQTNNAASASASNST
Test: GSK3b TR-FRET kinase assay
Assay type: biochemical
Conditions: 1 nM GSK3b, 2 μM ATP, 30 minute preincubation; geometric mean; read-out: GSK3-B TR-FRET BIOCHEMICAL (TR-FRET); GMean; IC50
pIC50: −log10 of the molar value.

Example compounds with recorded pIC50:
| Compound | pIC50 |
| --- | --- |
| CCC1(c2cccc(-c3ccnc(C)c3)c2)C2=C(CC(C)(C)NC2=O)Nc2n[nH]c(Cl)c21 (stereo not drawn) | ≥ 7.00 |
| CCC1(c2cccc(C3CC3)c2)C2=C(CC(C)(C)CC2=O)Nc2n[nH]cc21 (stereo not drawn) | ≥ 7.00 |
| CC[C@]1(c2cccc(C(F)(F)F)c2)C2=C(CCN(c3ccc(C)cc3)C2=O)Nc2n[nH]cc21 | < 5.30 |
| CC1(C)CC(=O)C2=C(C1)Nc1n[nH]c(Br)c1[C@]21CCc2c(F)cccc21 | ≥ 7.00 |
| COc1cccc(C2(C)C3=C(CC(C)(C)CC3=O)Nc3n[nH]cc32)c1 (stereo not drawn) | 6.00 to 7.00 |

Please fill in: pIC50 reported for CC[C@@]1(c2cccc(-c3c(C)c(C)nn3C)c2)C2=C(CC(C)(C)NC2=O)Nc2n[nH]cc21 = < 5.30

Measured pIC50 of CCC1(c2cccc(-c3cnn(C)c3)c2)C2=C(CC(C)(C)NC2=O)Nc2n[nH]c(C(F)(F)F)c21 (stereo not drawn) : ≥ 7.00

// pIC50 lookup, compound = CC[C@@]1(c2cccc(-c3ccnc4ccc(C)cc34)c2)C2=C(CC(C)(C)NC2=O)Nc2n[nH]cc21 , result: < 5.30

Lab note: CC1(C)CC(=O)C2=C(C1)Nc1n[nH]c(C(F)(F)F)c1C21CCc2c(F)cccc21 (stereo not drawn) gave pIC50 of 6.00 to 7.00

Entry under test: CC[C@@]1(c2cccc(-c3ccnc(C)c3Cl)c2)C2=C(CC(C)(C)NC2=O)Nc2n[nH]cc21 . Its pIC50 was < 5.30

Note to self: pIC50 recorded for CCC1(c2cccc(Br)c2)C2=C(CC(C)(C)C(F)C2=O)Nc2n[nH]cc21 (stereo not drawn) [Compound 835312] was < 5.30
